- System: TK-10 renal
- Method: NCI tumour cell line growth inhibition, 48 h
Catalogue of GI50 readings, one per entry.

[in] Reported GI50, molecule `NS(=O)(=O)c1ccc(-n2nc(-c3ccccc3)cc2-c2cc(O)ccc2O)cc1` : ____
[out] 35.9 µM

[in] Look up GI50: COC1/C=C/OC2(C)Oc3c(C)c(O)c4c(O)c(c(/C=N/N(c5ccccc5)c5ccccc5)c(O)c4c3C2=O)NC(=O)C(C)=C/C=C/C(C)C(O)C(C)C(O)C(C)C(OC(C)=O)C1C (stereo not drawn)
[out] 1.8 µM

---

- Tested on: HCT-116 colon
- Method: NCI tumour cell line growth inhibition, 48 h
Reported Metric: TGI

| Compound | Target | TGI |
| --- | --- | --- |
| CCOC(=O)C(C(=O)OCC)S(C)(=O)=O | HCT-116 colon | > 100 µM |
| O=C(C(=O)c1cccnc1)c1cccnc1 | HCT-116 colon | > 100 µM |
| COc1cc(C(=O)c2cnc(-c3ccc4cc[nH]c4c3)[nH]2)cc(OC)c1OC | HCT-116 colon | 2.23 µM |

[in] Quick check: TGI on HCT-116 colon, item COc1ccccc1/C=C1\CCC(CN2CCOCC2)C1=O (stereo not given) ?
[out] 22.9 µM

[in] Item: `O=c1[nH][nH]c(=O)c2c(O)c(-c3ccccc3)ncc12` Test system: HCT-116 colon Read-out: TGI Value: ?
[out] 405 µM

[in] What is its TGI for HCT-116 colon? Entry: `CN(C)c1ccc2cc3c(cc2c1)Oc1ccccc1N3.[Cl][Zn][Cl]`
[out] 4.34 µM

[in] Form field - read-out: TGI; system: HCT-116 colon; submitted item: `O=C1c2c(c3c4ccccc4n(CCCCCCN4CCOCC4)c3c3[nH]c4ccccc4c23)C(=O)N1O`
[out] 3.86 µM

[in] Lab note: need TGI for O=C(CC1(O)C(=O)Nc2c(Cl)cc(Cl)cc21)c1ccc([N+](=O)[O-])cc1 (stereo not given) on HCT-116 colon, anyone have it?
[out] > 59.2 µM

[in] Value wanted: TGI (HCT-116 colon) of entry `O=C(Cn1c2ccc(Br)cc2c2nc3ccccc3nc21)N1CCOCC1`
[out] > 100 µM

[in] For HCT-116 colon, provide TGI of `O=c1[nH]nc(-c2ccccc2)n1-n1cccc1` please.
[out] > 100 µM

[in] Request: TGI, test system HCT-116 colon, entry `O=C(NCCCN1CCN(CCCNC(=O)c2cc(-c3ccccc3)nc3ccccc23)CC1)c1cc(-c2ccccc2)nc2ccccc12`
[out] > 100 µM

[in] Form field: TGI recorded for CN(C)C1(N(C)C)Oc2c(c(=O)n(C)c(=O)n2C)C(c2ccc(F)cc2)C1(F)F (stereo not given) with HCT-116 colon (enter value)
[out] > 100 µM

[in] I'm curious: which TGI was measured for `CCCCCCCCCCCCCP(=O)(OC)OC` tested on HCT-116 colon?
[out] 33.8 µM

[in] Find TGI (HCT-116 colon) for the entry CC(c1ccccc1)n1c2ccccc2c2c(N)ncnc21 (stereo not given)
[out] 38.5 µM

[in] Lab note: need TGI with HCT-116 colon for entry `CN1CCN(C(=O)[C@@]2(C)CC[C@]3(C)CC[C@]4(C)C(=CC[C@@H]5[C@@]6(C)CC[C@H](OC(=O)c7cccnc7)C(C)(C)[C@@H]6CC[C@]54C)[C@@H]3C2)CC1` , please look it up.
[out] 2.87 µM

[in] Identify the measured TGI of CC(O)(c1ccc(OCCC[N+](C)(C)C)cc1)C(C)(O)c1ccc(OCCC[N+](C)(C)C)cc1 (stereo not given) for HCT-116 colon.
[out] > 100 µM

[in] Provide value of TGI for this record tested with HCT-116 colon: `CCc1cc2c(Nc3ccccc3)c3c(nc2s1)CCCC3`
[out] > 100 µM

[in] Identify the measured TGI of `CCc1c2c(nc3ccc(OC(=O)OCc4ccc(B5OC(C)(C)C(C)(C)O5)cc4)cc13)-c1cc3c(c(=O)n1C2)COC(=O)[C@]3(O)CC` for HCT-116 colon.
[out] > 100 µM

[in] Entry `CCCCCCCCCCCCCC(=O)NO` , system HCT-116 colon: what TGI was measured?
[out] > 94.9 µM

---

- Test system: DU-145 prostate
- Method: NCI tumour cell line growth inhibition, 48 h; in the data active = GI50 below about 0.43 µM; inactive = the rest
The reply should be one of these categories: active, inactive

Consider the worked cases shown below.
| Compound Structure | Label Class |
| --- | --- |
| Cl.[O-]c1cccc2cccnc12.[O-]c1cccc2cccnc12.[O-]c1cccc2cccnc12.[O-]c1cccc2cccnc12.[Ti+4] | inactive |
| COc1ccc2[nH]cc(C3(c4c[nH]c5ccc(OC)cc45)C(=O)Nc4ccc(Cl)cc43)c2c1 | inactive |
| CN(CCCCCCCCNc1ccnc2ccccc12)Cc1ccc(-c2ccc(-c3ccc(C#N)cc3)s2)cc1 | inactive |
| COC(=O)c1cc2c([nH]c3ccccc32)c(-c2nc3ccccc3cc2CO)n1 | inactive |
| Oc1ccccc1/C=N\Nc1ccccc1 | inactive |

Moving on to the next compound.
[in] Please share the test call associated with `COc1cc(C(=O)c2cnc(-c3ccc4cc[nH]c4c3)[nH]2)cc(OC)c1OC` .
[out] active

---

- System: NCI-H460 lung
- Method: NCI tumour cell line growth inhibition, 48 h
# TGI per record follows

| Compound | Reported Metric | Observed |
| --- | --- | --- |
| CC(Oc1ccc2c(=O)cc(-c3ccccc3)oc2c1)C(=O)O (stereo not given) | TGI | > 100 µM |
| Cc1ccc2nc(-c3nccn3C)cc(C(=O)NC(C)CN(C)C)c2c1 (stereo not given) | TGI | > 100 µM |
| CCOC1Oc2ccccc2C(=O)/C1=C\Nc1ccc(C(=O)O)c(O)c1 (stereo not given) | TGI | > 100 µM |

[in] Which measured TGI value corresponds to `N#Cc1ccc(C(=O)c2cnn(-c3ccc(F)cc3)c2N)cc1` ?
[out] > 25 µM

[in] I am curious: what TGI value has been reported for `O=C(NCCCN1CCN(CCCNC(=O)c2cc(-c3ccccc3)nc3ccccc23)CC1)c1cc(-c2ccccc2)nc2ccccc12` ?
[out] > 64.7 µM

---

- Tested on: UACC-62 melanoma
- Method: NCI tumour cell line growth inhibition, 48 h
In this section we review reported GI50 values for a set of compounds.

Use these answered entries as a reference point.
| Compound | GI50 |
| --- | --- |
| Cn1cc(-c2csc(-c3cn(CCCN4CCCCC4)c4ccc(Br)cc34)n2)c2cccnc21 | 1.78 µM |
| CCN(CC)CCNc1ccc(N=Nc2cnc3ccccc3c2)c2ccccc12 | 1.7 µM |
| C#Cc1cccc(Nc2ncnc3ccc(-c4cnc(N)nc4)cc23)c1 | 1.83 µM |
| COC(=O)c1cc2c([nH]c3ccccc32)c(-c2nc3ccccc3cc2CO)n1 | > 100 µM |
| Cl.[O-]c1cccc2cccnc12.[O-]c1cccc2cccnc12.[O-]c1cccc2cccnc12.[O-]c1cccc2cccnc12.[Ti+4] | 1.84 µM |
| CC[C@H](C)C(=O)O[C@H]1CCC=C2C=C[C@H](C)[C@H](CC[C@@H]3C[C@@H](O)CC(=O)O3)[C@H]21 | 2.51 µM |

[in] Which measured GI50 belongs to `CN(CCCCCCCCNc1ccnc2ccccc12)Cc1ccc(-c2ccc(-c3ccc(C#N)cc3)s2)cc1` , tested on UACC-62 melanoma?
[out] 1.53 µM

[in] Please state recorded GI50 (tested on UACC-62 melanoma) of `COc1cc(Cn2c3ccccc3c3cc(C)cc(OC)c32)cc2c1[nH]c1ccccc12`
[out] 15 µM

[in] Give the reported GI50 for `Cc1cc(C(=O)CC(Cl)=C(Cl)Cl)c(Cl)cc1Cl` (system: UACC-62 melanoma).
[out] 18.4 µM

[in] Requested read-out GI50, target or system UACC-62 melanoma, entry `COc1ccc2[nH]cc(C3(c4c[nH]c5ccc(OC)cc45)C(=O)Nc4ccc(Cl)cc43)c2c1`
[out] 3.61 µM

[in] What reported GI50 corresponds to CCOP(=O)(OCC)C(NC(c1ccccc1)c1ccccc1)c1ccsc1 (stereo unspecified) on UACC-62 melanoma?
[out] 12.8 µM

[in] Give GI50 (UACC-62 melanoma) of the following compound: `Cc1ccc2c(c1)C(=O)/C(=C/c1cccc(OCC(=O)c3ccc(Cl)cc3)c1)CS2`
[out] 9.14 µM

[in] Quick check: GI50 on UACC-62 melanoma, item `N#Cc1ccc(C(=O)c2cnn(-c3ccc(F)cc3)c2N)cc1` ?
[out] > 25 µM

[in] Checklist item: GI50 tested on UACC-62 melanoma, entry `CN(C)C[C@@H]1CCn2cc(c3ccccc32)C2=C(C(=O)NC2=O)c2cn(c3ccccc23)CCO1` , value?
[out] 0.792 µM

[in] Reported GI50 for UACC-62 melanoma, given `CCCCCCCCCCCCSC1=CC(=O)C=CC1=O` ?
[out] 7.59 µM

[in] Please tell me: GI50 of `CN(C)c1ccc(/C=N/n2c(CCCCc3n[nH]c(=S)n3/N=C/c3ccc(N(C)C)cc3)n[nH]c2=S)cc1` , system UACC-62 melanoma?
[out] > 100 µM
